Molecular target: ABCB11 (Homo sapiens, UniProt O95342)
Construct: His tag (inferred from the anti-his probe used on the Western blot); plasma membrane vesicles
Sequence (O95342 whole entry): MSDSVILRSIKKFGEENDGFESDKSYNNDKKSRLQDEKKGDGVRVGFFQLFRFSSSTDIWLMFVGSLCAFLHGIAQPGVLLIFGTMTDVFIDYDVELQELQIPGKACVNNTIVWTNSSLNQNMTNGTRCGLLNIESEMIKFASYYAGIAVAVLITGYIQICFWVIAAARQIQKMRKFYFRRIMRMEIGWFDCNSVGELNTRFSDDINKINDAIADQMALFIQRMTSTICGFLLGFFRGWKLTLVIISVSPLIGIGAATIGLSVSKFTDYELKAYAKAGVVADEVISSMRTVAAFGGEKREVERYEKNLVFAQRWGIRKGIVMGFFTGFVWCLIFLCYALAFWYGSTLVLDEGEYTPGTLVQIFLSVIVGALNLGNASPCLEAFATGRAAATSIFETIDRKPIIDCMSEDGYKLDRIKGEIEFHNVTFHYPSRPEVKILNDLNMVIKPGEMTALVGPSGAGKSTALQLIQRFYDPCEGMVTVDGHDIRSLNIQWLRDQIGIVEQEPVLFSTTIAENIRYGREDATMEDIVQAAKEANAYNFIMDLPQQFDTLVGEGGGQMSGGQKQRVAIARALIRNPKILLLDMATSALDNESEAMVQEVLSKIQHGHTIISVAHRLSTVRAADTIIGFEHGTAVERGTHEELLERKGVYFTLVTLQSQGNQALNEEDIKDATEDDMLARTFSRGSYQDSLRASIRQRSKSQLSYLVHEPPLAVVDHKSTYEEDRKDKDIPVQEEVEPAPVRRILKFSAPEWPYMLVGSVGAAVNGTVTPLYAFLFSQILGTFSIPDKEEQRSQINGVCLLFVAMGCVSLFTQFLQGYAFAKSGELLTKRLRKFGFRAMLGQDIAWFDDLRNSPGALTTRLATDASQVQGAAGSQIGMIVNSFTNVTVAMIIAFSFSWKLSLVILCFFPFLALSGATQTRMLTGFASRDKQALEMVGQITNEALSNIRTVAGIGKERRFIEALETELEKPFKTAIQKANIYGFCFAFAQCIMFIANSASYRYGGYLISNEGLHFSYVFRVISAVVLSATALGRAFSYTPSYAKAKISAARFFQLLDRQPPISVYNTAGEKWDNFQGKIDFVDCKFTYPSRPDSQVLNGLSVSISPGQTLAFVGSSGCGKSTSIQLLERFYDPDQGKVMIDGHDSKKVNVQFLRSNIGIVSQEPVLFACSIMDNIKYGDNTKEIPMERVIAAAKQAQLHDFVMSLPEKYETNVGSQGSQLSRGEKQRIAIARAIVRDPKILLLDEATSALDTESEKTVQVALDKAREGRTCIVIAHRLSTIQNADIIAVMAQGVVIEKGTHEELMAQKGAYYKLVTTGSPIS
Assay: CLF inhibition of TC transport into ABCB11 containing Sf21 membrane vesicles
Details: ATP-dependent transport, read-out: concentration of CLF at which half maximal TC transport was observed
Procedure: FIGS. 5A and 5B show CLF inhibition of DNP-SG and TC transport into ABCC2 (A) and ABCB11 (B) protein containing Sf21 membrane vesicles respectively. The values are expressed as a percentage of maximal ATP-dependent transport. […] Transport studies with membrane vesicles were performed using the rapid filtration technique as described by Heijn M et al. [Am J Physiol 1992 January; 262(1 Pt 1):C104-C110]. Radiolabel was measured with a scintillation counter. […]
pIC50: −log10 of the molar value.

compound	pIC50
CC(CCC(=O)NC(CCCCNC(=S)Nc1ccc(-c2c3ccc(=O)cc-3oc3cc(O)ccc23)c(C(=O)O)c1)C(=O)O)C1CCC2C3C(O)CC4CC(O)CCC4(C)C3CC(O)C12C (stereo not shown) [CLF, cholyl lysyl fluorescein]	~5.00
